# key: entry, value: IC50
TARGET OR TEST SYSTEM: Neuropeptide Y receptor type 5 (Homo sapiens)
Sequence (Q15761 whole entry): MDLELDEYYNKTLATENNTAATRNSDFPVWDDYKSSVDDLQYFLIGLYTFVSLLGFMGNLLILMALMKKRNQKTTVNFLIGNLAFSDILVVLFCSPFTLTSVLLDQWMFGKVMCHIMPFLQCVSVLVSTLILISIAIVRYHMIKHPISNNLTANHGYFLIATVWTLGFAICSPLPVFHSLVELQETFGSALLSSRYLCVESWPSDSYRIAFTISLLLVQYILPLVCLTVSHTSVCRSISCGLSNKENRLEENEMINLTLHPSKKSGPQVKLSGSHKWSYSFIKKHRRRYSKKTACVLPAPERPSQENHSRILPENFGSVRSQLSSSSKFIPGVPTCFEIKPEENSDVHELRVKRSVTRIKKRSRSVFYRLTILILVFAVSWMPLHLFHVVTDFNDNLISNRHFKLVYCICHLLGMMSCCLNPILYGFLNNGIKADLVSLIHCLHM
ASSAY METHOD TEXT: Antagonist activity at human NPY Y5 receptor transfected in mouse LMtk cells assessed as inhibition of neuropeptide Y-induced increase in […] Ca2+ level
Type: functional, cell-based
// return numeric value only (unit: nM, not printed)

See these solved cases before continuing.
QUERY SMILES	TARGET OR TEST SYSTEM	MEASUREMENT TYPE	RESULT NUMBER
O=C1OC2(CCN(c3nc4cc(C(F)(F)F)ccc4[nH]3)CC2)c2ccccc21	Neuropeptide Y receptor type 5 (Homo sapiens)	IC50	6.4
O=C1OC2(CCN(c3nc4cc(Cl)ccc4[nH]3)CC2)c2ccccc21	Neuropeptide Y receptor type 5 (Homo sapiens)	IC50	1.2
O=C1OC2(CCN(c3nc4cc(Cl)c(Cl)cc4[nH]3)CC2)c2ccccc21	Neuropeptide Y receptor type 5 (Homo sapiens)	IC50	1.4
COC(=O)c1ccc2[nH]c(N3CCC4(CC3)OC(=O)c3ccccc34)nc2c1	Neuropeptide Y receptor type 5 (Homo sapiens)	IC50	1.5

With those in mind, consider the next molecule.
Query: Need IC50 of `O=C1OC2(CCN(c3nc4cc(-c5ccccc5)ccc4[nH]3)CC2)c2ccccc21` , thanks.
Result: 1.8

====

# key: entry, value: Kp at 2 h
ASSAY METHOD TEXT: in vivo
MEASUREMENT CONDITIONS: rat, brain and plasma, po, 10 mg/kg
Description: Ratio of drug level in brain to plasma in rat at 10 mg/kg, po after 2 hrs
Respond with the number and no other words.

Query: Need Kp at 2 h of `O=C1OC2(CCN(c3nc4cc(-c5ccccc5)ccc4[nH]3)CC2)c2ccccc21` , thanks.
Result: 0.35

Query: Need Kp at 2 h of `COC(=O)c1ccc2[nH]c(N3CCC4(CC3)OC(=O)c3ccccc34)nc2c1` , thanks.
Result: 0.08

Query: Need Kp at 2 h of `O=C1OC2(CCN(c3nc4cc(C(F)(F)F)ccc4[nH]3)CC2)c2ccccc21` , thanks.
Result: 0.31

====

Test system: Rattus norvegicus
ASSAY METHOD TEXT: Plasma concentration in rat at 10 mg/kg, po after 2 hrs
Type: ADME, organism-based
Design: dose 10 mg/kg, route oral
MEASUREMENT TYPE: Concentration (µM)
// return numeric value only (unit: µM, not printed)

QUERY SMILES	TARGET OR TEST SYSTEM	Concentration, µM
COC(=O)c1ccc2[nH]c(N3CCC4(CC3)OC(=O)c3ccccc34)nc2c1	Rattus norvegicus	3.2
O=C1OC2(CCN(c3nc4cc(C(F)(F)F)ccc4[nH]3)CC2)c2ccccc21	Rattus norvegicus	15.3
O=C1OC2(CCN(c3nc4cc(-c5ccccc5)ccc4[nH]3)CC2)c2ccccc21	Rattus norvegicus	1.8
O=C1OC2(CCN(c3nc4cc(Cl)ccc4[nH]3)CC2)c2ccccc21	Rattus norvegicus	27.8

With those in mind, consider the next molecule.
Query: Item `O=C1OC2(CCN(c3nc4cc(Cl)c(Cl)cc4[nH]3)CC2)c2ccccc21` with Rattus norvegicus - Concentration?
Result: 2.9

====

TARGET OR TEST SYSTEM: Neuropeptide Y receptor type 2 (Homo sapiens, UniProt P49146)
Sequence (P49146 whole entry): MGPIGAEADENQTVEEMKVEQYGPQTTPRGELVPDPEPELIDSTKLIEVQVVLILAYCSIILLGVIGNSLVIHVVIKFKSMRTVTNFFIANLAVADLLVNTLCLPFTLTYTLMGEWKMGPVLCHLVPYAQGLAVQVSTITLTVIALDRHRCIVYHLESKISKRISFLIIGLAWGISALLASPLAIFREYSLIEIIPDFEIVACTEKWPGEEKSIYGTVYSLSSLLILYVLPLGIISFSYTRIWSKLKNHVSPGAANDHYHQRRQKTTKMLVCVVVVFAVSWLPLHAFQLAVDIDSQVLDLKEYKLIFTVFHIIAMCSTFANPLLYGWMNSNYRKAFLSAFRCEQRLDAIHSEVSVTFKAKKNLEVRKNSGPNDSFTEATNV
MEASUREMENT TYPE: IC50

Query: Item `O=C1OC2(CCN(c3nc4cc(C(F)(F)F)ccc4[nH]3)CC2)c2ccccc21` with Neuropeptide Y receptor type 2 (Homo sapiens, UniProt P49146) - IC50?
Result: > 10 µM

Recorded values, source ChEMBL document CHEMBL1141687.
